Hey, just so you know, these numbers are from ChEMBL document CHEMBL1201862.

tested on: SK-OV-3; assay: NCI tumour cell line growth inhibition, 48 h
Active and inactive are the calls of the source. No stated cut-off is given here; in the data, active = GI50 up to about 1.1 µM and inactive = higher. Where a SMILES comes first, the peptide text is derived from it.
Outcomes: 1 = active, 0 = inactive

COMPOUND: O=S(=O)(O)c1cc(/N=N/c2cc(S(=O)(=O)O)c3cccnc3c2O)ccc1/C=C/c1ccc(/N=N/c2cc(S(=O)(=O)O)c3cccnc3c2O)cc1S(=O)(=O)O
ANSWER LABEL: 0
--
COMPOUND: O=C1C[C@H](c2ccccc2)C2(C(=O)c3ccccc3C2=O)[C@H](c2ccccc2)C1
ANSWER LABEL: 0
--
COMPOUND: CC(C)c1ccc(/C=C2\CSCC3=C2N=C(S)NC3c2ccc(C(C)C)cc2)cc1 (stereo unspecified)
ANSWER LABEL: 0
--
COMPOUND: CCOC(=O)C(=O)Nc1ccc(Cl)c(C(F)(F)F)c1
ANSWER LABEL: 0
--
COMPOUND: COc1cc(C2c3cc4c(cc3[C@@H](OCCN(C)C)C3COC(=O)[C@H]23)OCO4)cc(OC)c1O (stereo partly specified)
ANSWER LABEL: 1
--
COMPOUND: CC(=O)NC(CS)C(=O)NC(CO)C(=O)NC(CO)C(=O)NC(Cc1c[nH]c2ccccc12)C(=O)N1CCCC1C(=O)NC(CO)C(=O)NC(Cc1c[nH]c2ccccc12)C(=O)NC(Cc1c[nH]cn1)C(=O)NC(CO)C(=O)NC(Cc1c[nH]c2ccccc12)C(=O)NCC(=O)NCC(=O)NC(CC(=O)O)C(=O)NC(CCC(N)=O)C(=O)NC(CCCCN)C(=O)NC(Cc1ccccc1)C(=O)NC(CCCNC(=N)N)C(=O)NC(CCCCN)C(N)=O (stereo unspecified) (Ac-CSSWPSWHSWGGDQKFRK-NH2; configuration not given here)
ANSWER LABEL: 0
--
COMPOUND: C=C(C)C1(Sc2ccc(OC)cc2)CC1
ANSWER LABEL: 0
--
COMPOUND: Nc1nc(SCCc2ccccc2)nc2nc3c(c(-c4ccccc4)c12)CCCC3
ANSWER LABEL: 0
--
COMPOUND: Cc1cc(S(=O)(=O)Nc2cc(N)n[nH]2)c(SCc2nc(N)nc(N(C)C)n2)cc1Cl
ANSWER LABEL: 0
--
COMPOUND: CSc1nc(NC2OCC(O)C(O)C2O)c(N)c(=O)n1C (stereo unspecified)
ANSWER LABEL: 0
--
COMPOUND: NNC1=N/C(=C\c2ccco2)C(=O)N1
ANSWER LABEL: 0
--
COMPOUND: O=C(C(Cl)=C(N1CCOCC1)N1CCOCC1)C(Cl)Cl
ANSWER LABEL: 0
--
COMPOUND: CCNC(=O)COc1ccc(Br)cc1Br
ANSWER LABEL: 0
--
COMPOUND: O=C1C(O)=C(CN(CCCl)CCCl)C(=O)c2ccccc21
ANSWER LABEL: 0
--
COMPOUND: CCc1cc(Cc2cc(CC)c(NC(=O)C(=O)Cc3ccccn3)c(CC)c2Cl)c(Cl)c(CC)c1NC(=O)C(=O)Cc1ccccn1
ANSWER LABEL: 0
--
COMPOUND: COC(C[C@H]1CCCC[C@]1(O)/C(=C\CO[Si](C(C)C)(C(C)C)C(C)C)Sc1ccccc1)OC
ANSWER LABEL: 0
--
COMPOUND: Cc1cnc2ccc(C)c([N+](=O)[O-])c2c1NCCCN(C)C
ANSWER LABEL: 0
--
COMPOUND: O=S(O)CCCCCSSc1ccccc1
ANSWER LABEL: 0
--
COMPOUND: Cc1ccc(S(=O)(=O)NC(=O)NC(CC(N)=O)C(=O)O)cc1 (stereo unspecified)
ANSWER LABEL: 0
--
COMPOUND: C[C@@H]1CC[C@@H]2[C@@H](C1)O[C@@H]([C@H](C)OCc1ccccc1)SC2(C)C
ANSWER LABEL: 0
--
COMPOUND: O=C1NC(=O)C23C(=O)NC(=O)C12C1C=CC3CC1 (stereo unspecified)
ANSWER LABEL: 0
